System: PC3 cell line
Assay: Cancer cell growth inhibition, SRB dye assay (single agents and 50:50 IC50 mixtures)
Type: cell-based, human
Details: Homo sapiens, PC-3, 144 h, single agent, Example 2
Listed here are molecules together with their documented IC50.
property label: IC50 (nM)

{"structure string": "CC(=O)O[C@H]1C(=O)[C@@]2(C)[C@H]([C@H](OC(=O)c3ccccc3)[C@]3(O)C[C@H](OC(=O)[C@H](O)[C@@H](NC(=O)c4ccccc4)c4ccccc4)C(C)=C1C3(C)C)[C@]1(OC(C)=O)CO[C@@H]1C[C@@H]2O", "target of assay": "PC3 cell line", "unit tag": "nM", "assay result": 2.1}
{"structure string": "CC(=O)O[C@@]12CO[C@@H]1C[C@H](O)[C@@]1(C)C(=O)[C@H](O)C3=C(C)[C@@H](OC(=O)[C@H](O)[C@@H](NC(=O)OC(C)(C)C)c4ccccc4)C[C@@](O)([C@@H](OC(=O)c4ccccc4)[C@H]21)C3(C)C", "target of assay": "PC3 cell line", "unit tag": "nM", "assay result": 0.09}
{"structure string": "CC[C@]1(O)C[C@H]2CN(CCc3c([nH]c4ccccc34)[C@@](C(=O)OC)(c3cc4c(cc3OC)N(C=O)[C@H]3[C@@](O)(C(=O)OC)[C@H](OC(C)=O)[C@]5(CC)C=CCN6CC[C@]43[C@@H]65)C2)C1", "target of assay": "PC3 cell line", "unit tag": "nM", "assay result": 1.1}
{"structure string": "COc1cccc2c1C(=O)c1c(O)c3c(c(O)c1C2=O)C[C@@](O)(C(=O)CO)C[C@@H]3O[C@H]1C[C@H](N)[C@H](O)[C@H](C)O1", "target of assay": "PC3 cell line", "unit tag": "nM", "assay result": 22}

###

Test system: DU145 cell line
Assay: Cancer cell growth inhibition, SRB dye assay (single agents and 50:50 IC50 mixtures)
Format: cell-based, human
Details: single agent, Example 2

{"molecule": "N.N.[Cl][Pt][Cl] [Cisplatin]", "IC50": "540 nM"}

###

Parameter pIC50: see the listing below.
System: MCF7 cell line
Experiment: Cancer cell growth inhibition, SRB dye assay (single agents and 50:50 IC50 mixtures)
Type: cell-based, human
Conditions: Homo sapiens, 144 h, Example 3, value used to make up 50:50 IC50 mixtures, read-out: IC50 values used in assay
pIC50: −log10 of the molar value.
property label: pIC50

{"molecule": "CC[C@]1(O)C[C@H]2CN(CCc3c([nH]c4ccccc34)[C@@](C(=O)OC)(c3cc4c(cc3OC)N(C=O)[C@H]3[C@@](O)(C(=O)OC)[C@H](OC(C)=O)[C@]5(CC)C=CCN6CC[C@]43[C@@H]65)C2)C1", "assay result": 9.30}
{"molecule": "CC(=O)O[C@@]12CO[C@@H]1C[C@H](O)[C@@]1(C)C(=O)[C@H](O)C3=C(C)[C@@H](OC(=O)[C@H](O)[C@@H](NC(=O)OC(C)(C)C)c4ccccc4)C[C@@](O)([C@@H](OC(=O)c4ccccc4)[C@H]21)C3(C)C", "assay result": 10.52}
{"molecule": "COc1cccc2c1C(=O)c1c(O)c3c(c(O)c1C2=O)C[C@@](O)(C(=O)CO)C[C@@H]3O[C@H]1C[C@H](N)[C@H](O)[C@H](C)O1", "assay result": 7.82}
{"molecule": "C[C@@H]1CC[C@@]2(OC1)O[C@H]1C[C@H]3[C@@H]4CC=C5C[C@@H](O[C@@H]6O[C@H](CO)[C@@H](O[C@@H]7O[C@@H](C)[C@H](O)[C@@H](O)[C@H]7O)[C@H](O)[C@H]6O[C@@H]6O[C@@H](C)[C@H](O)[C@@H](O)[C@H]6O)CC[C@]5(C)[C@H]4CC[C@]3(C)[C@H]1[C@@H]2C [Dioscin, diosgenin Rha2, [Rha4], Glc]", "assay result": 6.00}
{"molecule": "C[C@@H]1CC[C@@]2(OC1)O[C@H]1C[C@H]3[C@@H]4CC=C5C[C@@H](O[C@@H]6O[C@H](CO)[C@@H](O[C@@H]7O[C@H](CO)[C@@H](O)[C@H](O)[C@H]7O)[C@H](O)[C@H]6O[C@@H]6O[C@@H](C)[C@H](O)[C@@H](O)[C@H]6O)CC[C@]5(C)[C@H]4CC[C@]3(C)[C@H]1[C@@H]2C [Deltonin, diosgenin Rha2, [Glc4], Glc]", "assay result": 6.00}
